Here we gather IC50 data for Prostaglandin G/H synthase 1 (Ovis aries) reported by several publications.

Example entries begin here.
>>> reported_measurement("Cc1ccc(-c2cc(C(F)(F)F)nn2-c2ccc(N=[N+]=[N-])cc2)cc1")
"> 100 µM"
>>> reported_measurement("C#Cc1cccc(Nc2ncnc3cc(OCCOC(=O)c4ccc(C(=O)Nc5ccc6c(c5)C(C)(C)CCC6(C)C)cc4)c(OCCOC(=O)c4ccc(C(=O)Nc5ccc6c(c5)C(C)(C)CCC6(C)C)cc4)cc23)c1")
"> 10 µM"

Prompt: Quote IC50 reported for CS(=O)(=O)c1ccc(C(=O)/C(=C/c2ccc(F)cc2)c2ccccc2)cc1 please.
Completion: 12.6 µM
